Measured values drawn from paper PMC7409020 for this set.

Target Of Assay: recombinant FABP3 (Homo sapiens)
Sequence (P05413 whole entry): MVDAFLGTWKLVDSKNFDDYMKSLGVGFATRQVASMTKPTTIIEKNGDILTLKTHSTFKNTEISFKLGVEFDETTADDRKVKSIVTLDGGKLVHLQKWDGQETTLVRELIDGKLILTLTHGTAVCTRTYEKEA
Protocol Details: Microscale thermophoresis (MST) binding to NT-650-NHS-labeled FABP3
Test Context: 20 nM labeled FABP3; peptide 500 µM to 0.0153 µM, two-fold dilutions; PBS-tween 20 pH 7.4; 25 °C; 40% MST power; 1:1 fit; mean ± SD of three independent experiments
Square brackets hold non-standard residues; d marks the D form. Peptide text beside a SMILES is read from it.
Measure: Kd (nM)

CC(C)C[C@H](NC(=O)CNC(=O)[C@H](CO)NC(=O)[C@H](CC(C)C)NC(=O)[C@H](C)NC(=O)[C@H](CS)NC(=O)[C@H](C)N)C(=O)NCC(=O)N[C@H](C(=O)N[C@@H](C)C(N)=O)C(C)C [A-[Ala^2]CooP] (H-ACALSGLGVA-NH2): 90
CC(C)C[C@H](NC(=O)CNC(=O)[C@H](CO)NC(=O)[C@H](C)NC(=O)CNC(=O)[C@H](CS)NC(=O)[C@H](C)N)C(=O)NCC(=O)N[C@H](C(=O)N[C@@H](C)C(N)=O)C(C)C [A-[Ala^3]CooP] (H-ACGASGLGVA-NH2): 250

(A) CC(C)C[C@H](NC(=O)CNC(=O)[C@H](CO)NC(=O)[C@H](CC(C)C)NC(=O)CNC(=O)[C@H](CS)NC(=O)[C@H](C)N)C(=O)NCC(=O)N[C@H](C(=O)N[C@@H](C)C(=O)N[C@@H](CCCCN)C(N)=O)C(C)C [A-CooP-K] (H-ACGLSGLGVAK-NH2)
(B) CC(C)C[C@H](NC(=O)CNC(=O)[C@H](CO)NC(=O)[C@H](CC(C)C)NC(=O)CNC(=O)[C@H](CS)NC(=O)[C@H](C)N)C(=O)N[C@@H](C)C(=O)N[C@H](C(=O)N[C@@H](C)C(N)=O)C(C)C [A-[Ala^7]CooP] (H-ACGLSGLAVA-NH2)
(C) CC(C)C[C@@H](NC(=O)CNC(=O)[C@H](NC(=O)[C@@H](C)N)C(C)C)C(=O)NCC(=O)N[C@H](CO)C(=O)N[C@H](CC(C)C)C(=O)NCC(=O)N[C@H](CS)C(=O)N[C@H](C)C(N)=O [RI-A-CooP] (H-[dA][dV]G[dL]G[dS][dL]G[dC][dA]-NH2)
(D) CC(C)C[C@H](NC(=O)CNC(=O)[C@H](CO)NC(=O)[C@H](CC(C)C)NC(=O)CNC(=O)[C@H](CS)NC(=O)[C@H](C)NC(=O)[C@@H](N)CCCCN)C(=O)NCC(=O)N[C@H](C(=O)N[C@@H](C)C(N)=O)C(C)C [KA-CooP] (H-KACGLSGLGVA-NH2)
(E) CC(C)C[C@H](NC(=O)CNC(=O)[C@H](CO)NC(=O)[C@H](CC(C)C)NC(=O)CNC(=O)[C@H](CS)NC(=O)[C@H](C)N)C(=O)NCC(=O)N[C@@H](C)C(=O)N[C@@H](C)C(N)=O [A-[Ala^8]CooP] (H-ACGLSGLGAA-NH2)
Q: Hey, quick one: sort these by Kd, largest value first please. Please list the labels in the order you were asked to rank them.
Result: B, C, D, E, A

(1) CC(C)C[C@H](NC(=O)CNC(=O)[C@H](CS)NC(=O)[C@H](C)N)C(=O)N[C@@H](CO)C(=O)NCC(=O)N[C@@H](C)C(=O)NCC(=O)N[C@H](C(=O)N[C@@H](C)C(N)=O)C(C)C [A-[Ala^6]CooP] (H-ACGLSGAGVA-NH2)
(2) CC(C)C[C@H](NC(=O)CNC(=O)[C@H](CO)NC(=O)[C@H](CC(C)C)NC(=O)CNC(=O)[C@H](CS)NC(=O)[C@H](C)N)C(=O)NCC(=O)N[C@H](C(=O)N[C@@H](C)C(N)=O)C(C)C [A-CooP] (H-ACGLSGLGVA-NH2)
Q: Returns: the label, 1 or 2 , whose recorded Kd is the lower number. Return value: the label identifying the chosen record.
Result: 1
